Record form. Attribute: tissue to tissue ratio at 120 h. Fill in for each entry.
assay: Biodistribution of 177Lu-labeled αMSH analogues in mice bearing SK-MEL-1 human melanoma; details: male, NRG (NOD.Cg-Rag1tm1Mom Il2rgtm1Wjl/SzJ), mouse, tumour/kidney, total radioactivity, 120 h p.i., NRG mice, SK-MEL-1 melanoma
Numbers only.

molecule	tissue to tissue ratio at 120 h
CCCC[C@H](NC(=O)CN1CCC(NC(=O)[C@H](CCCCNC(=O)CN2CCN(CC(=O)O)CCN(CC(=O)O)CCN(CC(=O)O)CC2)NC(=O)[C@H](CCC(=O)O)NC(=O)CCCc2ccc(I)cc2)CC1)C(=O)N[C@H]1CC(=O)NCCCC[C@@H](C(N)=O)N(C)C(=O)[C@H](Cc2c[nH]c3ccccc23)NC(=O)[C@H](CCCNC(=N)N)N(C)C(=O)[C@@H](Cc2ccccc2)NC(=O)[C@H](Cc2c[nH]cn2)NC1=O [^177Lu-labeled CCZ01118, metal not drawn]	2.85
CCCC[C@H](NC(=O)CN1CCC(NC(=O)[C@H](CCCCNC(=O)CN2CCN(CC(=O)O)CCN(CC(=O)O)CCN(CC(=O)O)CC2)NC(=O)CNC(=O)CCCc2ccc(-c3ccc(C)cc3)cc2)CC1)C(=O)N[C@H]1CC(=O)NCCCC[C@@H](C(N)=O)N(C)C(=O)[C@H](Cc2c[nH]c3ccccc23)NC(=O)[C@H](CCCNC(=N)N)N(C)C(=O)[C@@H](Cc2ccccc2)NC(=O)[C@H](Cc2c[nH]cn2)NC1=O [^177Lu-labeled CCZ01158, metal not drawn]	6.17

Short answer for CCCC[C@H](NC(=O)CN1CCC(NC(=O)[C@H](CCCCNC(=O)CN2CCN(CC(=O)O)CCN(CC(=O)O)CCN(CC(=O)O)CC2)NC(=O)CNC(=O)CCCc2ccc(I)cc2)CC1)C(=O)N[C@H]1CC(=O)NCCCC[C@@H](C(N)=O)N(C)C(=O)[C@H](Cc2c[nH]c3ccccc23)NC(=O)[C@H](CCCNC(=N)N)N(C)C(=O)[C@@H](Cc2ccccc2)NC(=O)[C@H](Cc2c[nH]cn2)NC1=O [^177Lu-labeled CCZ01148, metal not drawn] : tissue to tissue ratio at 120 h was 6.57

###

assay: Biodistribution of 68Ga-labeled peptide in mice bearing B16F10 mouse melanoma; format: in vivo, C57BL/6J mice; details: C57BL/6J, muscle, iv, with BMS 470539 (MC1R-specific inhibitor), 0.5 mg co-injected, total radioactivity, 1 h p.i. blocked, co-injection of 0.5 mg BMS 470539, read-out: Biodistribution, Muscle
property label: tissue uptake at 1 h (%ID/g)
Answers are plain numbers, in %ID/g.

tissue uptake at 1 h in this record for CCCC[C@H](NC(=O)CN1CCC(NC(=O)CN2CCN(CC(=O)O)CCN(CC(=O)O)CCN(CC(=O)O)CC2)CC1)C(=O)N[C@H]1CC(=O)NCCCC[C@@H](C(N)=O)N(C)C(=O)[C@H](Cc2c[nH]c3ccccc23)N(C)C(=O)[C@H](CCCNC(=N)N)N(C)C(=O)[C@@H](Cc2ccccc2)NC(=O)[C@H](Cc2c[nH]cn2)N(C)C1=O [^68Ga-labeled CCZ01099, metal not drawn] : 0.08

###

assay: Biodistribution of 177Lu-labeled αMSH analogues in mice bearing B16F10 mouse melanoma; assay type: in vivo, C57BL/6J mice; conditions: mouse, fat, iv, total radioactivity; 1 h p.i., C57BL/6J mice, B16F10 melanoma; read-out: Biodistribution, Fat
property label: tissue uptake at 1 h (%ID/g)
Numbers only, in %ID/g.

The molecule identified as CCCC[C@H](NC(=O)CN1CCC(NC(=O)[C@H](CCCCNC(=O)CN2CCN(CC(=O)O)CCN(CC(=O)O)CCN(CC(=O)O)CC2)NC(=O)[C@H](CCC(=O)O)NC(=O)CCCc2ccc(I)cc2)CC1)C(=O)N[C@H]1CC(=O)NCCCC[C@@H](C(N)=O)N(C)C(=O)[C@H](Cc2c[nH]c3ccccc23)N(C)C(=O)[C@H](CCCNC(=N)N)N(C)C(=O)[C@@H](Cc2ccccc2)NC(=O)[C@H](Cc2c[nH]cn2)N(C)C1=O [^177Lu-labeled CCZ01088, metal not drawn] registered its tissue uptake at 1 h at 0.65

###

experiment: Biodistribution of 68Ga-labeled peptide in mice bearing B16F10 mouse melanoma; assay type: in vivo, C57BL/6J mice; conditions: C57BL/6J, seminal glands, iv, with BMS 470539 (MC1R-specific inhibitor), 0.5 mg co-injected, total radioactivity, 1 h p.i. blocked, co-injection of 0.5 mg BMS 470539, read-out: Biodistribution, Seminal glands
property label: tissue uptake at 1 h (%ID/g)
Numbers only, in %ID/g.

The molecule identified as CCCC[C@H](NC(=O)CN1CCC(NC(=O)CN2CCN(CC(=O)O)CCN(CC(=O)O)CCN(CC(=O)O)CC2)CC1)C(=O)N[C@H]1CC(=O)NCCCC[C@@H](C(N)=O)N(C)C(=O)[C@H](Cc2c[nH]c3ccccc23)N(C)C(=O)[C@H](CCCNC(=N)N)N(C)C(=O)[C@@H](Cc2ccccc2)NC(=O)[C@H](Cc2c[nH]cn2)N(C)C1=O [^68Ga-labeled CCZ01099, metal not drawn] registered its tissue uptake at 1 h at 0.07

###

experiment: Biodistribution of 177Lu-labeled αMSH analogues in mice bearing B16F10 mouse melanoma; format: in vivo, C57BL/6J mice; settings: mouse, pancreas, iv, total radioactivity; 120 h p.i., C57BL/6J mice, B16F10 melanoma; read-out: Biodistribution, Pancreas
property label: tissue uptake at 120 h
Number first, unit second: that is the form wanted.

compound	property label	reported result
CCCC[C@H](NC(=O)CN1CCC(NC(=O)[C@H](CCCCNC(=O)CN2CCN(CC(=O)O)CCN(CC(=O)O)CCN(CC(=O)O)CC2)NC(=O)[C@H](CCC(=O)O)NC(=O)CCCc2ccc(I)cc2)CC1)C(=O)N[C@H]1CC(=O)NCCCC[C@@H](C(N)=O)NC(=O)[C@H](Cc2c[nH]c3ccccc23)NC(=O)[C@H](CCCNC(=N)N)NC(=O)[C@@H](Cc2ccccc2)NC(=O)[C@H](Cc2c[nH]cn2)NC1=O [^177Lu-labeled CCZ01082, metal not drawn]	tissue uptake at 120 h	0.09 %ID/g

Now turn to the next compound.
Documented tissue uptake at 120 h of CCCC[C@H](NC(=O)CN1CCC(NC(=O)CN2CCN(CC(=O)O)CCN(CC(=O)O)CCN(CC(=O)O)CC2)CC1)C(=O)N[C@H]1CC(=O)NCCCC[C@@H](C(N)=O)N(C)C(=O)[C@H](Cc2c[nH]c3ccccc23)NC(=O)[C@H](CCCNC(=N)N)N(C)C(=O)[C@@H](Cc2ccccc2)NC(=O)[C@H](Cc2c[nH]cn2)NC1=O [^177Lu-labeled CCZ01106, metal not drawn] : 0.01 %ID/g

###

experiment: Biodistribution of 177Lu-labeled αMSH analogues in mice bearing B16F10 mouse melanoma; type: in vivo, C57BL/6J mice; details: mouse, spleen, iv, total radioactivity; 4 h p.i., C57BL/6J mice, B16F10 melanoma; read-out: Biodistribution, Spleen
Please go through the items and note down their tissue uptake at 4 h.
Give bare numbers, in %ID/g.

molecule	reported result
CCCC[C@H](NC(=O)CN1CCC(NC(=O)CN2CCN(CC(=O)O)CCN(CC(=O)O)CCN(CC(=O)O)CC2)CC1)C(=O)N[C@H]1CC(=O)NCCCC[C@@H](C(N)=O)N(C)C(=O)[C@H](Cc2c[nH]c3ccccc23)N(C)C(=O)[C@H](CCCNC(=N)N)N(C)C(=O)[C@@H](Cc2ccccc2)NC(=O)[C@H](Cc2c[nH]cn2)N(C)C1=O [^177Lu-labeled CCZ01099, metal not drawn]	0.13
CCCC[C@H](NC(=O)CN1CCC(NC(=O)[C@H](CCCCNC(=O)CN2CCN(CC(=O)O)CCN(CC(=O)O)CCN(CC(=O)O)CC2)NC(=O)[C@H](CCC(=O)O)NC(=O)CCCc2ccc(I)cc2)CC1)C(=O)N[C@H]1CC(=O)NCCCC[C@@H](C(N)=O)N(C)C(=O)[C@H](Cc2c[nH]c3ccccc23)N(C)C(=O)[C@H](CCCNC(=N)N)N(C)C(=O)[C@@H](Cc2ccccc2)NC(=O)[C@H](Cc2c[nH]cn2)N(C)C1=O [^177Lu-labeled CCZ01088, metal not drawn]	0.83

Alright, here's another molecule for you.
The molecule listed as CCCC[C@H](NC(=O)CN1CCC(NC(=O)[C@H](CCCCNC(=O)CN2CCN(CC(=O)O)CCN(CC(=O)O)CCN(CC(=O)O)CC2)NC(=O)[C@H](CCC(=O)O)NC(=O)CCCc2ccc(I)cc2)CC1)C(=O)N[C@H]1CC(=O)NCCCC[C@@H](C(N)=O)N(C)C(=O)[C@H](Cc2c[nH]c3ccccc23)NC(=O)[C@H](CCCNC(=N)N)N(C)C(=O)[C@@H](Cc2ccccc2)NC(=O)[C@H](Cc2c[nH]cn2)NC1=O [^177Lu-labeled CCZ01118, metal not drawn] shows tissue uptake at 4 h equal to 1.02

Value source: patent US11395857B2
